# subject_of_test: T1, recombinant human IL-6 (human, UniProt P05231 30-212, labeled with radioactive iodine)
# T1 construct: Labeled probe in solution, added to wells that carry the synthetic peptides; also called IL-6 ligand; Interleukin-6
# assay_explanation: radioiodinated IL-6 on peptide array; experiment D11-D57
Classify by Counts/minute bound. Ranges: 1 (below 8000 counts/minute), 2 (8000 counts/minute to below 20000 counts/minute), 3 (20000 counts/minute or more)

binder	answer_label
GGSLAFGALLCIAIVLRFKKT (alanine-scan variant of the domain IV 21-mer) [Peptide D56]	3
GGSLAFGTLLCIAIVLRFKKA (alanine-scan variant of the domain IV 21-mer) [Peptide D44]	3
GGSLAFGTLLCI [Peptide D20]	1
GGSLAFGTLLCIAIVLRFAKT (alanine-scan variant of the domain IV 21-mer) [Peptide D46]	3
CIAIVLRFKKT [Peptide D37]	2
GGSLAFGTLLCIAIVLRF [Peptide D14]	1
GGSLAFGTLLCIAIVLRFKK [Peptide D12]	2
IAIVLRFKKT [Peptide D38]	1

Prompt: Exam item: assign GGSLAFGTLLCIAI [Peptide D18] to the correct category.
Response: 1

Prompt: Exam item: assign LLCIAIVLRFKKT [Peptide D35] to the correct category.
Response: 2

Each recorded value in this set is attributed to patent US20040092720A1.
